tested on: NMDA receptor; assay: NMDA-induced convulsions in mice (NMDA-induced anticonvulsant test); type: in vivo; conditions: NMDA 175 mg/kg i.p. 30 min after i.p. test compound (60 min after oral), percent protection = 100 (E-C)/(10-C), dose and route of test compound not given
Hi there, I'd appreciate the recorded % mice protected for every entry that follows.
Provide only the numeric value, understood in %.

Input: Entry under review: CN1CC[C@@]23CCCC[C@@H]2[C@@H]1Cc1ccc(Oc2nccs2)cc13 [Fumarate (the 1st table, row 4)] . Reported % mice protected?
Output: 86

Input: Now this one: CC(C)(CO)N1CC[C@]23CCCC[C@H]2[C@H]1Cc1ccc(Oc2ccccn2)cc13 [Example 18]
Output: 50

Input: Now this one: CN1CC[C@@]23CCCC[C@@H]2[C@@H]1Cc1ccc(Oc2cccc(Br)n2)cc13 [Fumarate (the 1st table, row 6)]
Output: 67

Input: Now this one: CN1CC[C@@]23CCCC[C@@H]2[C@@H]1Cc1ccc(Oc2ccccn2)cc13 [Oxalate]
Output: 86

Source of measurements: patent EP0612730A1
